Target: T1, 4H3974-AA
T1 chain: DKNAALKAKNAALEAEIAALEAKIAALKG
Assay: two-hybrid library CCmax;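 note: natural log of median RNA to DNA barcode read ratio; higher means stronger binding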
Settings: mean of both orientations
ASSAY_METRIC: interaction score

Known interaction score results, listed for orientation:
BINDER | interaction score
DKIAALKAKIAALKAENAALEAKNAALEG [4H2903-AA] | -0.747
DKNAALKAENAALKAEIAALEAEIAALEG [4H3777-AA] | -0.511
DKIAALKAEIAALEAKIAALKAENAALKG [4H2604-AA] | -0.774

a. DKIAALKAEIAALEAENAALEAENAALKG [4H2580-AA]
b. DKNAALKAKIAALKAEIAALKAENAALEG [4H3915-AA]
Between the entries labeled a and b , whose measured interaction score is lower? Field: selected label. Fill in the label of the entry you choose.
a
